Target: human glucocorticoid receptor (GR) complex (Homo sapiens, UniProt P04150)
Sequence (P04150 1-777): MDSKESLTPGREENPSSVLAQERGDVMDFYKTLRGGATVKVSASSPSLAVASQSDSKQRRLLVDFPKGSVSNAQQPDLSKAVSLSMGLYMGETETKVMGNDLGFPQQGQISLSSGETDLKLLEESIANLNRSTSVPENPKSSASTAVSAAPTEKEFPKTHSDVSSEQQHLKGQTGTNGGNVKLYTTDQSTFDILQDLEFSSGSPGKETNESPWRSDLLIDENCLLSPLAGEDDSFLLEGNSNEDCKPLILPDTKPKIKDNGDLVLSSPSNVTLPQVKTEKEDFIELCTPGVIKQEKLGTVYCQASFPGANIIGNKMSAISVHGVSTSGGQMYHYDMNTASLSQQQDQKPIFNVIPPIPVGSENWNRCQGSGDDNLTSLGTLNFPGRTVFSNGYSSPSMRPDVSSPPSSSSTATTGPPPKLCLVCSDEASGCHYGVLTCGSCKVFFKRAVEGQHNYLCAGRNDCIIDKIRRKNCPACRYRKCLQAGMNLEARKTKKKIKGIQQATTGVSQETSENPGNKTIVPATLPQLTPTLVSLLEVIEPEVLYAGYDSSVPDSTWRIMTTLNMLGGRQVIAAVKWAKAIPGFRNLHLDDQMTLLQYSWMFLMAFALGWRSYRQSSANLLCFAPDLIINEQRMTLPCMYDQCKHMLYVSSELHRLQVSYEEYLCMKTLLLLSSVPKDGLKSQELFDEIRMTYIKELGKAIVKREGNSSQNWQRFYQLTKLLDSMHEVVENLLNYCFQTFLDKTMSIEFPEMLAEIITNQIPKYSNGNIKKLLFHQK
Assay: Glucocorticoid receptor competitive binding assay (fluorescence polarization)
Details: competition with TAMRA-labeled dexamethasone; read-out: potent activity in the GR binding assay (IC50)
pIC50: −log10 of the molar value.
Quantity: pIC50

Solved cases below.
Compound | Quantity | Result
CC(Cc1c[nH]c2ccccc12)NS(=O)(=O)c1c(C(C)C)cc(C(C)C)cc1C(C)C (stereo not drawn) | pIC50 | ≥ 7.00
Cc1cc(C)c(S(=O)(=O)NC(C)Cc2c[nH]c3ccccc23)c(C)c1 (stereo not drawn) | pIC50 | ≥ 7.00

Req: Item CCC(Cc1c[nH]c2ccccc12)NS(=O)(=O)c1c(C)cc(C)cc1C (stereo not drawn) has what recorded pIC50?
Resp: ≥ 7.00
